measured target: Serine/threonine-protein kinase DCLK2 (Homo sapiens)
protocol conditions: at 10 µM
Label 1 when residual activity >= 50%; otherwise 0.

-- ask Quick check: does Cn1sc(=O)n(Cc2ccccc2)c1=O have residual activity greater than or equal to 50%?
-- reply 1

-- ask Quick check: does CC(C)(C)c1nc2c3ccc(F)cc3c3c(=O)[nH]ccc3c2[nH]1 have residual activity greater than or equal to 50%?
-- reply 0

-- ask Quick check: does O=C1NC(=O)c2c1c1c3ccccc3[nH]c1n1cncc21 have residual activity greater than or equal to 50%?
-- reply 1

-- ask Quick check: does COc1ccc2c(c1)c(C1=C(c3c[nH]c4ccccc34)C(=O)NC1=O)cn2CCCN(C)C have residual activity greater than or equal to 50%?
-- reply 1

-- ask Quick check: does O=S(=O)(NCCNC/C=C/c1ccc(Br)cc1)c1cccc2cnccc12 have residual activity greater than or equal to 50%?
-- reply 1

-- ask Quick check: does c1ccc(-c2cnc(Nc3ccc(OCCN4CCCC4)cc3)s2)cc1 have residual activity greater than or equal to 50%?
-- reply 1
